# assay name: Quantitative High-Throughput drug screen in 47 multiple myeloma cell lines against the NCATS MIPE library collection: U266_ATCC cell viability assay (AID 1919864); also: nearly all actives have a fitted effect of over 35% in size
# experimental parameters: U266 myeloma viability, CellTiter-Glo ATP luminescence, 48 h; series mostly up to 45.8 µM
Records with an inconclusive call do not appear. Active and inactive are the calls of the source. Calls follow the shape of the dose curve; as a rule, active = well fitted cell-killing curve with a large enough effect; inconclusive = small, poorly fitted or top-dose-only effect, or effect the other way; inactive = no such curve, though single readings can be large or run the other way.
Possible outcomes: true = active, false = inactive

> print(dat)
                                   molecule  group.label
1  COc1c(N2CCNC(C)C2)c(F)cc2c(=O)c(C(=O)O)cn(C3CC3)c12 (stereo unspecified)        false
2  Cc1ccc(S(=O)(=O)N[C@@H](Cc2ccccc2)C(=O)CCl)cc1         true
3  CC(C)OC(=O)OCOP(=O)(CO[C@H](C)Cn1cnc2c(N)ncnc21)OCOC(=O)OC(C)C         true
4        OC(Cn1cncn1)(Cn1cncn1)c1ccc(F)cc1F        false
5  CN1CCCC(n2nc(Cc3ccc(Cl)cc3)c3ccccc3c2=O)CC1 (stereo unspecified)         true
6  COC(c1ccccc1)(c1ccccc1)[C@H](Oc1nc(C)cc(C)n1)C(=O)O        false

* * *

# assay name: Quantitative High-Throughput drug screen in 47 multiple myeloma cell lines against the NCATS MIPE library collection: SKMM1_PLB cell viability assay (AID 1919863); also: potency is read from the fitted curve at half-maximal effect; nearly all actives have a fitted effect of over 35% in size
# experimental parameters: SKMM1 myeloma viability, CellTiter-Glo ATP, 48 h
Records with an inconclusive call do not appear. The source made the active and inactive calls. Calls follow the shape of the dose curve; as a rule, active = well fitted cell-killing curve with a large enough effect; inconclusive = small, poorly fitted or top-dose-only effect, or effect the other way; inactive = no such curve, though single readings can be large or run the other way.
measure: Potency

> print(dat)
                                    compound        result.value
 1              CC(C)Cn1cnc2c(N)nc3ccccc3c21    14.8 µM (active)
 2       COC(=O)Nc1nc2ccc(Sc3ccccc3)cc2[nH]1    3.32 µM (active)
 3  C1CCC(C(CC2CCCCN2)C2CCCCC2)CC1 (stereo unspecified)    18.7 µM (active)
 4  CCc1c2c(nc3ccc(OC(=O)N4CCC(N5CCCCC5)CC4)cc13)-c1cc3c(c(=O)n1C2)COC(=O)[C@]3(O)CC   0.526 µM (active)
 5  CN1CCCC(n2nc(Cc3ccc(Cl)cc3)c3ccccc3c2=O)CC1 (stereo unspecified)    20.9 µM (active)
 6  NC1(c2ccc(-c3nc4ccn5c(=O)[nH]nc5c4cc3-c3ccccc3)cc2)CCC1    7.43 µM (active)
 7  COc1cc2nc(N3CCCN(C)CC3)nc(NC3CCN(Cc4ccccc4)CC3)c2cc1OC    7.43 µM (active)
 8  Cc1ccc(S(=O)(=O)N[C@@H](Cc2ccccc2)C(=O)CCl)cc1    18.7 µM (active)
 9  COc1cc(NCc2ccc3nc(N)nc(N)c3c2C)cc(OC)c1OC    11.8 µM (active)
10   COC(=O)Nc1nc2ccc(C(=O)c3ccccc3)cc2[nH]1   0.332 µM (active)
11                  Nc1nc(=S)c2[nH]cnc2[nH]1     5.9 µM (active)
12   N=C(N)c1ccc(OCCCCCOc2ccc(C(=N)N)cc2)cc1    20.9 µM (active)
13  CNC(=O)c1cc(Oc2ccc(NC(=O)Nc3ccc(Cl)c(C(F)(F)F)c3)cc2)ccn1    29.6 µM (active)
14                    CC1=CC(=O)c2ccccc2C1=O    16.6 µM (active)
15  Nc1nc(F)nc2c1ncn2[C@@H]1O[C@H](CO)[C@@H](O)[C@@H]1O   0.332 µM (active)
16  CCOC(=O)[C@H](CCc1ccccc1)N[C@H]1CS[C@H](c2cccs2)CN(CC(=O)O)C1=O    14.8 µM (active)
17  CNS(=O)(=O)CCc1ccc2[nH]cc(C3CCN(C)CC3)c2c1    4.18 µM (active)
18  CC(C)C[C@H](NC(=O)[C@H](CCc1ccccc1)NC(=O)CN1CCOCC1)C(=O)N[C@@H](Cc1ccccc1)C(=O)N[C@@H](CC(C)C)C(=O)[C@@]1(C)CO1  0.0209 µM (active)
19  COc1ccc(C(=O)CC(=O)c2ccc(C(C)(C)C)cc2)cc1     5.9 µM (active)
20  CO[C@@]12[C@H](COC(N)=O)C3=C(C(=O)C(C)=C(N)C3=O)N1C[C@@H]1N[C@@H]12    20.9 µM (active)
21  COc1ccc2cc3[n+](cc2c1OC)CCc1cc2c(cc1-3)OCO2    14.8 µM (active)
